# Subject of test: Nuclear factor erythroid 2-related factor 2 (Homo sapiens, UniProt Q16236)
# Sequence (Q16236 whole entry): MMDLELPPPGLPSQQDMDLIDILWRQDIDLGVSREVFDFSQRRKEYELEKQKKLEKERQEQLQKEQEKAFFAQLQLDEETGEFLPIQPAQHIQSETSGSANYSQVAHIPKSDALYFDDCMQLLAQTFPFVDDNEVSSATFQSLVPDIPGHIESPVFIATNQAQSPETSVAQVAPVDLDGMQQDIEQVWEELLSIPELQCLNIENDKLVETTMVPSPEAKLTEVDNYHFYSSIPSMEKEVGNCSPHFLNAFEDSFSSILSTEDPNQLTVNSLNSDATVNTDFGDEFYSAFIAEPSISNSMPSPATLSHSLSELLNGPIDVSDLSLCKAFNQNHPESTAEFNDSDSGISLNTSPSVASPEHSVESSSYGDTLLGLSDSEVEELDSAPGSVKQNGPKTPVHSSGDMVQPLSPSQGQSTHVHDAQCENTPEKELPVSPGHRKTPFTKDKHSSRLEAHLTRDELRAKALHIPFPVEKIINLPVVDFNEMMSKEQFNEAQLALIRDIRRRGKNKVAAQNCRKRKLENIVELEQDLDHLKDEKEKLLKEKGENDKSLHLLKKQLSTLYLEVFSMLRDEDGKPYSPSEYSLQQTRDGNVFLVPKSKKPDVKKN
# Experiment summary: Activation of ED-tagged Nrf2 in human U2OS cells co-expressing Keap1 assessed as induction of NRF2 translocation to nucleus after 6 hrs by beta-galactosidase based chemiluminescent assay
pEC50: −log10 of the molar value.
Assay metric: pEC50

> print(dat)
                           smiles.repr  observed.measurement
1  COc1ccc(OS(=O)(=O)/C=C/c2ccccc2)cc1                  5.83

[I] COc1ccccc1NS(=O)(=O)/C=C/c1ccccc1Cl
[II] COc1ccccc1OS(=O)(=O)/C=C/c1cccc(Cl)c1
Between I and II , which one shows the larger pEC50 value? Please respond with the label that marks your chosen entry.
II

* * *

The compounds listed here are annotated with their pEC50.
# Subject of test: Nuclear factor erythroid 2-related factor 2 (Homo sapiens)
# Experiment summary: Activation of ED-tagged Nrf2 in human U2OS cells co-expressing Keap1 assessed as induction of NRF2 translocation to nucleus after 6 hrs by beta-galactosidase based chemiluminescent assay
pEC50: −log10 of the molar value.

Example entries begin here.
> print(dat)
                             smiles.repr                           subject.of.test  observed.measurement
1  COc1ccc(NS(=O)(=O)/C=C/c2ccccc2Cl)cc1  Nuclear factor erythroid 2-related factor 2 (Homo sapiens)                < 5.00
2        O=S(=O)(/C=C/c1ccccc1)Nc1ccccc1  Nuclear factor erythroid 2-related factor 2 (Homo sapiens)                < 5.00
3      O=S(=O)(/C=C/c1ccccc1Cl)Nc1ccccc1  Nuclear factor erythroid 2-related factor 2 (Homo sapiens)                < 5.00
4  COc1cccc(NS(=O)(=O)/C=C/c2ccccc2Cl)c1  Nuclear factor erythroid 2-related factor 2 (Homo sapiens)                < 5.00

// switching to the query compound
If you can, please state the reported pEC50 value of COc1ccccc1OS(=O)(=O)/C=C/c1ccc(Cl)cc1 .
5.87
